# credit: ChEMBL document CHEMBL1781967

# assay-system: Hypoxia-inducible factor 1-alpha (Homo sapiens, UniProt Q16665)
# Sequence (Q16665 whole entry): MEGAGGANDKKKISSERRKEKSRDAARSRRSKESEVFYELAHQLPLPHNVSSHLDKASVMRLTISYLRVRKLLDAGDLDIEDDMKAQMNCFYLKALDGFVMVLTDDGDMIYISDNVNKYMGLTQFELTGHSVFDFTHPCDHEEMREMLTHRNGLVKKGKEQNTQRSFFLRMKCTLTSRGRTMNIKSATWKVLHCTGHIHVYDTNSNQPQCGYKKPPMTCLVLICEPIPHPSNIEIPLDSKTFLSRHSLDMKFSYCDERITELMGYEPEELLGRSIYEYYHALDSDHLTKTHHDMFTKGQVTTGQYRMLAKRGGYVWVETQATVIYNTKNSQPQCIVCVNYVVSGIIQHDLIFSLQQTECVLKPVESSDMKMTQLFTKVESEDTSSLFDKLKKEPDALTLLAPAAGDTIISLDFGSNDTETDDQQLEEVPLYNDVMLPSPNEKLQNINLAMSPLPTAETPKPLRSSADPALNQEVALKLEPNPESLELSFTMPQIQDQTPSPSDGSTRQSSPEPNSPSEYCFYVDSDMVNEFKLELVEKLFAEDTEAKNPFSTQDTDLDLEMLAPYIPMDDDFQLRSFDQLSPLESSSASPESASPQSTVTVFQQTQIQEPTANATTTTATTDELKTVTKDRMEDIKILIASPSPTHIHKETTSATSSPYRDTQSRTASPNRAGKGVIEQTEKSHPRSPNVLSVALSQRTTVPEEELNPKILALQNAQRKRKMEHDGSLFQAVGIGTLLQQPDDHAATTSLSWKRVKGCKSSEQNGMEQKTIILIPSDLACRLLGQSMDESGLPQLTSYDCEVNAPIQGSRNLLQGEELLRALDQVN
# assay-remarks: Inhibition of hypoxia-induced HIF1alpha transcriptional activity in HEK293 cells incubated for 16 hrs by hypoxia response element-driven luciferase reporter gene assay
pIC50: −log10 of the molar value.
The reader will find reported pIC50 values listed item by item below.

| structure-as-smiles | inequality-operator | pIC50 |
| --- | --- | --- |
| COc1ccc(OC)c(CNc2ccc(NC(=O)Nc3ccccc3)cc2)c1 | = | 4.53 |
| O=C(Nc1ccccc1)Nc1ccc(NCc2ccccc2O)cc1 | = | 4.49 |
| O=C(Nc1ccccc1)Nc1ccc(NCc2ccc(O)cc2)cc1 | = | 4.45 |
| COc1cccc(OC)c1CNc1ccc(NC(=O)Nc2ccccc2)cc1 | = | 4.41 |
| O=C(Nc1ccccc1)Nc1ccc(NCc2ccccc2C(=O)O)cc1 | = | 4.29 |
| O=C(Nc1ccccc1)Nc1ccc(NCc2ccc(C(=O)O)cc2)cc1 | < | 4.00 |
| COc1ccc(CNc2ccc(NC(=O)Nc3ccccc3)cc2)cc1 | = | 4.64 |
| COc1cc(CNc2ccc(NC(=O)Nc3ccccc3)cc2)cc(OC)c1 | = | 4.73 |
| COC(=O)c1cccc(CNc2ccc(NC(=O)Nc3ccccc3)cc2)c1 | = | 5.14 |
| COc1cccc(CNc2ccc(NC(=O)Nc3ccccc3)cc2)c1OC | = | 5.06 |
| COC(=O)c1ccc(OC)c(CNc2ccc(NC(=O)Nc3ccccc3)cc2)c1 | = | 4.66 |
